target or test system: UniProtKB P41145
experimental protocol: OPRKappa 1 Tango B-Arrestin Assay, antagonist mode (Tango OPRK1-bla U2OS cells, U50488 EC80 challenge)
test settings: antagonist mode, Tango OPRK1-bla U2OS cells, 6 nM U50488 challenge
measure name: IC50

CCc1cc(F)c2nc(N3CC[C@@H](N[C@@H]4CCOC4)C[C@@H]3C)c(-c3cc(C)no3)c(C)c2c1 | 10 to 100 nM
CCc1cc(F)c2nc(N3[C@H](C)CN(C(=O)CN4CCCC4)C[C@H]3C)c(-c3nc(C)no3)c(C)c2c1 | < 1 nM
CCc1cc(F)c2nc(N3CCN(CCC4CC(F)(F)C4)C[C@H]3C)c(-c3nc(C)no3)c(C)c2c1 | 1 to 10 nM
CCc1cc(F)c2nc(N3CCN(CC4CCOCC4)[C@H](C)C3)c(-c3nc(C)no3)c(C)c2c1 | ≥ 100 nM
CCc1cc(F)c2nc(N3CCN(C[C@@H]4CCOC4)C[C@H]3C)c(-c3nc(C)no3)c(C)c2c1 | 10 to 100 nM
CCc1cc(F)c2nc(N3CCN(C[C@H]4CCCO4)C[C@H]3CC)c(-c3nc(C)no3)c(C)c2c1 | 10 to 100 nM
CCc1cc(-c2ccnn2C)c2nc(N3CCC(N[C@@H]4CCOC[C@@H]4F)CC3)c(-c3ccn(C)n3)c(C)c2c1 | < 1 nM
CCc1cc(F)c2nc(N3CC[C@@H](N[C@H]4CCOC4)[C@@H](F)C3)c(-c3ccn(C)n3)c(C)c2c1 | < 1 nM
CCc1cc(-c2ccn(C)n2)c2nc(N3CCC(N[C@H]4CCOC[C@@H]4F)CC3)c(-c3nc(C)no3)c(C)c2c1 | < 1 nM
CCc1cc(F)c2nc(N3CCN(C(C)C4CCOCC4)C[C@H]3C)c(-c3nc(C)no3)c(C)c2c1 (some centres unmarked) | 10 to 100 nM
CCc1cc(F)c2nc(N3CC[C@H](NC4CCOCC4)[C@H](F)C3)c(-c3ccn(C)n3)c(C)c2c1F | 10 to 100 nM
CCc1cc(F)c2nc(N3CCN(C(=O)C(C)(C)N4CCCC4)C[C@H]3C)c(-c3cc(C)no3)c(C)c2c1 | 10 to 100 nM
CCc1cc(F)c2nc(N3CC[C@H](N[C@@H]4CCCOC4)C[C@@H]3C)c(-c3ccn(C)n3)c(C)c2c1 | 10 to 100 nM
CCc1cc(F)c2nc(N3CCN(C(=O)[C@H]4CC(F)(F)CCN4)C[C@H]3C)c(-c3nc(C)no3)c(C)c2c1 | 1 to 10 nM

###

target or test system: mu opioid receptor (MOR) (Homo sapiens)
Sequence (P35372 whole entry): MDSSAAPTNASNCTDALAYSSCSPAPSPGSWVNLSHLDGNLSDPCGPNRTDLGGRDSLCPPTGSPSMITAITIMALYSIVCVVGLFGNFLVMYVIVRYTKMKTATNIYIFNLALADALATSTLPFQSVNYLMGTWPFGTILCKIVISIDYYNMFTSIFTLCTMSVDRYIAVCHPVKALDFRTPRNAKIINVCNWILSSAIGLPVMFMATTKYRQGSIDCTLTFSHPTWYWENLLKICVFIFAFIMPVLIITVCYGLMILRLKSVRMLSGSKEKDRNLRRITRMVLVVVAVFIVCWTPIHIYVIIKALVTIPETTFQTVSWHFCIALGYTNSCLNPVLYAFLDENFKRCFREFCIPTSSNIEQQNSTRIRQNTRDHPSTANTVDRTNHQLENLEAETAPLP
experimental protocol: OPRMu1 Discover X β-arrestin Assay, antagonist mode (U2OS cells, DAMGO EC80 challenge)
measure name: IC50

CCc1cc(C#N)c2nc(N3CCC(NCC4(F)CCOCC4)CC3)c(-c3ccn(C)n3)c(C)c2c1 | 100 to 1000 nM
CCc1cc(F)c2nc(N3CCN(CC4CCOCC4)[C@@H](C)C3)c(-c3nc(C)no3)c(C)c2c1 | > 1000 nM
CCc1cc(-c2ccnn2C)c2nc(N3CC[C@@H](NC4CCOCC4)[C@@H](F)C3)c(-c3ccn(C)n3)c(C)c2c1 | 10 to 100 nM
CCc1cc(-c2ccnn2C)c2nc(N3CCC(N[C@@H]4CCOC[C@@H]4F)CC3)c(-c3ccn(C)n3)c(C)c2c1 | 10 to 100 nM
CCc1cc(-c2ccnn2C)c2nc(N3CCN(C[C@@H]4CCOC4)C[C@H]3C)c(-c3ccn(C)n3)c(C)c2c1 | > 1000 nM
CCc1cc(F)c2nc(N3CCN(C[C@H]4CCCO4)C[C@H]3CC)c(-c3nc(C)no3)c(C)c2c1 | > 1000 nM
CCc1cc(-c2ccn(C)n2)c2nc(N3CCC(N[C@@H]4CCOC4)CC3)c(-c3ccn(C)n3)c(C)c2c1 | > 1000 nM
CCc1cc(F)c2nc(N3CCN(C(=O)CN4CC[C@@H](F)C4)C[C@H]3C)c(-c3nc(C)no3)c(C)c2c1 | 100 to 1000 nM
CCc1cc(F)c2nc(N3CCN(C[C@@H]4CCOC4)C[C@H]3C)c(-c3ccn(C)n3)c(C)c2c1 | > 1000 nM
CCc1cc(F)c2nc(N3CC[C@@H](N[C@@H]4CCOC4)C[C@H]3C)c(-c3cc(C)no3)c(C)c2c1 | 100 to 1000 nM
CCc1cc(F)c2nc(N3CCC(N[C@H]4CCOC4)CC3)c(-c3cc(C)n(C)n3)c(C)c2c1 | > 1000 nM
CCc1cc(F)c2nc(N3CCN(C4CCOCC4)C[C@@H]3C)c(-c3nc(C)no3)c(C)c2c1 [Compound 27] | > 1000 nM
CCc1cc(-c2cc(C)nn2C)c2nc(N3CCC(N[C@H]4CCOC4)CC3)c(-c3ccn(C)n3)c(C)c2c1 | 10 to 100 nM
CCc1cc(F)c2nc(N3CCN(C(=O)[C@H](CO)N(C)C)C[C@H]3C)c(-c3nc(C)no3)c(C)c2c1 | > 1000 nM
CCc1cc(F)c2nc(N3CCN(CC(C)C)C[C@H]3C)c(-c3nc(C)no3)c(C)c2c1 | > 1000 nM
CCc1cc(F)c2nc(N3CCN(C(=O)[C@@H]4C[C@@H](O)CN4C)C[C@H]3C)c(-c3ccn(C)n3)c(C)c2c1 | > 1000 nM
CCc1cc(F)c2nc(N3CCN(C(=O)[C@H](C)N4CCCC4)C[C@H]3C)c(-c3nc(C)no3)c(C)c2c1 [Compound 201] | 100 to 1000 nM
CCc1cc(F)c2nc(N3CCC(N[C@@H]4COC[C@@H]4F)CC3)c(-c3ccn(C)n3)c(C)c2c1 | > 1000 nM
CCc1cc(F)c2nc(N3CCN(C(C)C4CCOCC4)C[C@H]3C)c(-c3nc(C)no3)c(C)c2c1 (stereo partly shown) | > 1000 nM
CCc1cc(F)c2nc(N3CCN(C(=O)[C@H]4CC(F)(F)CCN4)C[C@H]3C)c(-c3nc(C)no3)c(C)c2c1 | > 1000 nM
CCc1cc(F)c2nc(N3CCN(CC4CC(F)(F)C4)C[C@H]3C)c(-c3nc(C)no3)c(C)c2c1 | > 1000 nM
CCc1cc(F)c2nc(N3CCN(CC4CCOCC4)C[C@H]3C)c(-c3cc(C)no3)c(C)c2c1 | > 1000 nM
CCc1cc(-c2cc[nH]n2)c2nc(N3CCNC[C@H]3C)c(-c3nc(C)no3)c(C)c2c1 | > 1000 nM
CCc1cc(F)c2nc(N3CCN(C[C@H]4CCOC4)C[C@H]3C)c(-c3nc(C)no3)c(C)c2c1 | > 1000 nM
Cc1noc(-c2c(N3CCN(CC4CCOCC4)C[C@H]3C)nc3c(F)cc(Cl)cc3c2C)n1 | > 1000 nM
CCc1cc(F)c2nc(N3CCN(C4CC5(COC5)C4)C[C@H]3C)c(-c3nc(C)no3)c(C)c2c1 | > 1000 nM
CCc1cc(F)c2nc(N3CCN(C(=O)[C@@H](C)N4CC[C@@H](O)C4)C[C@H]3C)c(-c3nc(C)no3)c(C)c2c1 | > 1000 nM
CCc1cc(F)c2nc(N3CCN(C(=O)[C@H](C)N(CC)CC)C[C@H]3C)c(-c3ccn(C)n3)c(C)c2c1 | > 1000 nM

###

Reported pIC50 values follow for various compounds
target or test system: kappa opioid receptor (KOR) (Homo sapiens, UniProt P41145)
Construct: host or cells: U2OS (Tango OPRK1-bla U2OS)
Sequence (P41145 whole entry): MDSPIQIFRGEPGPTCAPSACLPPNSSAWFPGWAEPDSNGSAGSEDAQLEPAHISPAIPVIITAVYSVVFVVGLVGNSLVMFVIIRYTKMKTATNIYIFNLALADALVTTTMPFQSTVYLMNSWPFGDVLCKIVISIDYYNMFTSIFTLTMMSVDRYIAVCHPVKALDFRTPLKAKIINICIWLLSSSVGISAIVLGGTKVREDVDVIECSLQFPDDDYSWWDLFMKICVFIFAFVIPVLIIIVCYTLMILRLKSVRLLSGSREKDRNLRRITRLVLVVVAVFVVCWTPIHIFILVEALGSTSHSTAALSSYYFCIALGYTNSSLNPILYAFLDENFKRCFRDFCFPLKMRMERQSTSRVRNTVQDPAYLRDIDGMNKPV
experimental protocol: OPRKappa 1 Tango B-Arrestin Assay, antagonist mode (Tango OPRK1-bla U2OS cells, U50488 EC80 challenge)
Format: cell-based
test settings: antagonist mode, Tango OPRK1-bla U2OS cells, 6 nM U50488 challenge
pIC50: −log10 of the molar value.
measure name: pIC50

CCN/C(=N/C#N)N1CCN(c2nc3c(F)cc(CC)cc3c(C)c2-c2ccn(C)n2)[C@H](C)C1 | ≤ 7.00
CCc1cc(-c2ccnn2C)c2nc(N3CCC(N[C@@H]4CCOC4)CC3)c(-c3ccn(C)n3)c(C)c2c1 | > 9.00
CCc1cc(-c2ccnn2C)c2nc(N3CCC(N[C@H]4CCOC4)CC3)c(-c3ccn(C)n3)c(C)c2c1 | > 9.00
CCc1cc(F)c2nc(N3CC[C@@H](N[C@@H]4CCOC4)[C@H](C)C3)c(-c3ccn(C)n3)c(C)c2c1 | 8.00 to 9.00
CCc1cc(F)c2nc(N3CCN(/C(=N/C#N)NC)C[C@H]3C)c(-c3nc(C)no3)c(C)c2c1 | 7.00 to 8.00
CCc1cc(F)c2nc(N3CCC(N[C@H]4CCOC[C@@H]4O)CC3)c(-c3cc(C)n(C)n3)c(C)c2c1 | 8.00 to 9.00
CCc1cc(F)c2nc(N3CC[C@H]4[C@H](CCN4C[C@@H]4CCOC4)C3)c(-c3ccn(C)n3)c(C)c2c1 (stereo in doubt) | 7.00 to 8.00
CCc1cc(F)c2nc(N3CC[C@@H]4[C@@H](CCN4C[C@@H]4CCCOC4)C3)c(-c3ccn(C)n3)c(C)c2c1 [Compound 133] | 7.00 to 8.00
CCc1cc(F)c2nc(N3CCN(C4CC5(CCOCC5)C4)C[C@H]3C)c(-c3nc(C)no3)c(C)c2c1 | 7.00 to 8.00
CCc1cc(F)c2nc(N3CCNC[C@H]3C)c(-c3ccn(C)n3)c(C)c2c1 | ≤ 7.00
CCc1cc(F)c2nc(N3CCN([C@@H]4CCOC4)C[C@H]3C)c(-c3nc(C)no3)c(C)c2c1 | ≤ 7.00
CCc1cc(-c2ccnn2C)c2nc(N3CCN(C[C@H]4CCOC4)C[C@H]3C)c(-c3ccn(C)n3)c(C)c2c1 | 7.00 to 8.00
CCc1cc(F)c2nc(N3CCN(C(=O)CN(CC)CC)C[C@H]3C)c(-c3cc(C)no3)c(C)c2c1 | 8.00 to 9.00
Cc1noc(-c2c(N3CCN(CC4CCOCC4)C[C@H]3C)nc3c(F)cc(Cl)cc3c2C)n1 | ≤ 7.00
